target: HLA-B*07:02; test: IEDB peptide-MHC binding, purified MHC/competitive/radioactivity; filed as Kd, often an IC50 or EC50 that approximates it; bounds were set here for any values at or beyond the usual limits of such assays; conditions: source organism: Dengue virus 4 Philippines/H241/1956
# Kd per record follows

Sequence Code: SPAAAQKAT
Target Under Test: HLA-B*07:02
Measurement Unit: nM
Kd: 14.3

Sequence Code: LVSLLGSAL
Target Under Test: HLA-B*07:02
Measurement Unit: nM
Kd: 44.3

Sequence Code: NPNMTDKTPV
Target Under Test: HLA-B*07:02
Measurement Unit: nM
Kd: 118

Sequence Code: SPIINRKGKV
Target Under Test: HLA-B*07:02
Measurement Unit: nM
Kd: 248

Sequence Code: SPAAAQKATL
Target Under Test: HLA-B*07:02
Measurement Unit: nM
Kd: 3.95

Sequence Code: GPMVAGGLLL
Target Under Test: HLA-B*07:02
Measurement Unit: nM
Kd: 36.3
